Molecular target: ABL2 (human) (UniProt P42684)
Sequence (P42684 whole entry, looked up): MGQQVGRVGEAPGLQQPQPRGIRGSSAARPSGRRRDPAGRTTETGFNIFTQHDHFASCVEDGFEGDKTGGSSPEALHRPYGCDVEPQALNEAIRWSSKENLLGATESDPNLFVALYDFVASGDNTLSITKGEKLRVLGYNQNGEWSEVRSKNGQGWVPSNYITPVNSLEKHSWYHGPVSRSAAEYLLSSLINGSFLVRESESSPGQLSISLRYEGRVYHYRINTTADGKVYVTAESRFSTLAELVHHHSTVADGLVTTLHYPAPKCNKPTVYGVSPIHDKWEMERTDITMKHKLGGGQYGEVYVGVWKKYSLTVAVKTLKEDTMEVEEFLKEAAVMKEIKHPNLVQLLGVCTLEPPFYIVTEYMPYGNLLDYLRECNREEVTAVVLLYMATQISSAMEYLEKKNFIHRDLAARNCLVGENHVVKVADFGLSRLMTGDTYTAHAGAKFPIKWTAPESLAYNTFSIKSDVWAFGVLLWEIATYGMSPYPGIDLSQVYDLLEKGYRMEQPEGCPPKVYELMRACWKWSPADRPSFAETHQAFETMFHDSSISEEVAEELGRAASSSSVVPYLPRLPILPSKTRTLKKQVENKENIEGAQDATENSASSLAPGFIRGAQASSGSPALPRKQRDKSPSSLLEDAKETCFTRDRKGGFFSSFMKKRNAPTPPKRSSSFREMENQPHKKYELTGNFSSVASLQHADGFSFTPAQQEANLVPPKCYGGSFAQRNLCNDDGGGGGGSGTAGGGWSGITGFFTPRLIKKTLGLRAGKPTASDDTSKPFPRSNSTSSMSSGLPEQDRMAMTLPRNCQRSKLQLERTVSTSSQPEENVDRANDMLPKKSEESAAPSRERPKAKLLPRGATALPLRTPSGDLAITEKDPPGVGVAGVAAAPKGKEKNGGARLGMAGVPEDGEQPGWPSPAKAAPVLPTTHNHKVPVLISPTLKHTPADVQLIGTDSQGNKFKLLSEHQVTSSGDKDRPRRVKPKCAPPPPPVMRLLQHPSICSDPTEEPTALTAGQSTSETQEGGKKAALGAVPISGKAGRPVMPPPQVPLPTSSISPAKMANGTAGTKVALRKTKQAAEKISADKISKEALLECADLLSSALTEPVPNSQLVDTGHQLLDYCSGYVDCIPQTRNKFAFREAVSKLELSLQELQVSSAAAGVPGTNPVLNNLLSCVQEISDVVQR
Assay: KINOMEscan competition binding
Details: compound 10.0 µM
testReadout: kinase still bound, per cent of control (%)
All answers are understood in %, so give the number only.

>>> quantitativeresult("Cc1cnc(-c2cnc(NCCNc3ccc(C#N)cn3)nc2-c2ccc(Cl)cc2Cl)[nH]1")
100
>>> quantitativeresult("COc1ccc(CNC(=O)Nc2ncc([N+](=O)[O-])s2)cc1")
89

Query `Cn1cc(C2=C(c3ccc(Cl)cc3Cl)C(=O)NC2=O)c2ccccc21` yields kinase still bound, per cent of control of 93

Measured kinase still bound, per cent of control, `O=C1Nc2cc(Br)ccc2/C1=C1/Nc2ccccc2/C1=N\O` : 1.2

----------
Examples of compounds with documented kinase still bound, per cent of control follow.
Target: LATS1 (human)
Assay: KINOMEscan competition binding
Conditions: compound 10.0 µM
Response body: numeric value in %, unit text excluded.

>>> quantitativeresult("O=C1Nc2cc(Br)ccc2/C1=C1/Nc2ccccc2/C1=N\\O")
70
>>> quantitativeresult("COc1ccc(CNC(=O)Nc2ncc([N+](=O)[O-])s2)cc1")
100
>>> quantitativeresult("Cn1cc(C2=C(c3ccc(Cl)cc3Cl)C(=O)NC2=O)c2ccccc21")
100

Short answer for `Cc1cnc(-c2cnc(NCCNc3ccc(C#N)cn3)nc2-c2ccc(Cl)cc2Cl)[nH]1` : kinase still bound, per cent of control was 100

----------
Molecular target: IGF1R (human)
Assay: KINOMEscan competition binding
Conditions: compound 10.0 µM
testReadout: kinase still bound, per cent of control (%)
Give your result in % as a bare value.

Some solved cases for reference:
>>> quantitativeresult("COc1ccc(CNC(=O)Nc2ncc([N+](=O)[O-])s2)cc1")
100
>>> quantitativeresult("Cc1cnc(-c2cnc(NCCNc3ccc(C#N)cn3)nc2-c2ccc(Cl)cc2Cl)[nH]1")
100

For reference, reported kinase still bound, per cent of control for `O=C1Nc2cc(Br)ccc2/C1=C1/Nc2ccccc2/C1=N\O` stands at 83

Summary for this compound, `Cn1cc(C2=C(c3ccc(Cl)cc3Cl)C(=O)NC2=O)c2ccccc21` : kinase still bound, per cent of control is 95

----------
Molecular target: PRKACA (human) (UniProt P17612)
Assay: KINOMEscan competition binding
Conditions: compound 10.0 µM
testReadout: kinase still bound, per cent of control (%)
Give the value in % but do not write % after it.

Previously resolved entries follow.
>>> quantitativeresult("Cn1cc(C2=C(c3ccc(Cl)cc3Cl)C(=O)NC2=O)c2ccccc21")
100
>>> quantitativeresult("Cc1cnc(-c2cnc(NCCNc3ccc(C#N)cn3)nc2-c2ccc(Cl)cc2Cl)[nH]1")
100
>>> quantitativeresult("O=C1Nc2cc(Br)ccc2/C1=C1/Nc2ccccc2/C1=N\\O")
100

Proceed to the following item.
Noted for `COc1ccc(CNC(=O)Nc2ncc([N+](=O)[O-])s2)cc1` : its kinase still bound, per cent of control reads 96

----------
Molecular target: UniProt:P78362
Sequence (P78362 whole entry, looked up): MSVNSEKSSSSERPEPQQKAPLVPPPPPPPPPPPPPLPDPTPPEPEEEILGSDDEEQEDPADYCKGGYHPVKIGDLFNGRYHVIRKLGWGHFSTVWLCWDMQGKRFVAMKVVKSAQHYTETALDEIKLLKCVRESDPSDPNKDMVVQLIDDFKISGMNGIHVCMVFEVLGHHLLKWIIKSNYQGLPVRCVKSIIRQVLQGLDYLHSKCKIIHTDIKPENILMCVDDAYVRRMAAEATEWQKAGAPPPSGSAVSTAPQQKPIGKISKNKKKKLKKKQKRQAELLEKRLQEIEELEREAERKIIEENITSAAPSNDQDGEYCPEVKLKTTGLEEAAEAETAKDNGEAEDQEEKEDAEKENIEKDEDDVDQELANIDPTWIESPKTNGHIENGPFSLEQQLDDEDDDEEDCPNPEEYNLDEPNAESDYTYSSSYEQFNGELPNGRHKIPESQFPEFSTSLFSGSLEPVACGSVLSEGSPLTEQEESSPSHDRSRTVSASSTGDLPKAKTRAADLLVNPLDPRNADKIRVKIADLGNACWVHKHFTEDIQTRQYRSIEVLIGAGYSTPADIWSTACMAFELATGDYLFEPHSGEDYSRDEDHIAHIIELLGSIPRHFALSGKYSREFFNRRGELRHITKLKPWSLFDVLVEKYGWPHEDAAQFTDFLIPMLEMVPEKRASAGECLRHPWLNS
Assay: KINOMEscan competition binding
Settings: compound 10.0 µM
testReadout: kinase still bound, per cent of control

These recorded examples may help you get a feel for the data.
>>> result("Cc1cnc(-c2cnc(NCCNc3ccc(C#N)cn3)nc2-c2ccc(Cl)cc2Cl)[nH]1")
"100%"
>>> result("COc1ccc(CNC(=O)Nc2ncc([N+](=O)[O-])s2)cc1")
"81%"
>>> result("O=C1Nc2cc(Br)ccc2/C1=C1/Nc2ccccc2/C1=N\\O")
"5.8%"

Let us examine a further case.
The measured kinase still bound, per cent of control associated with `Cn1cc(C2=C(c3ccc(Cl)cc3Cl)C(=O)NC2=O)c2ccccc21` reads 83%
